biological target: HLA-B*57:01; test: IEDB peptide-MHC binding, purified MHC/competitive/radioactivity; filed as Kd, often an IC50 or EC50 that approximates it; bounds were set here for any values at or beyond the usual limits of such assays; conditions: source organism: Dengue virus 2 Peru/IQT2913/1996
pKd: −log10 of the molar value.

>  <RECORD SEQUENCE>
KTRTNDWDF

>  <pKd>
8.18

$$$$

----------
target: HLA-B*08:01; experiment: IEDB peptide-MHC binding, purified MHC/competitive/fluorescence; filed as Kd, often an IC50 or EC50 that approximates it; bounds were set here for any values at or beyond the usual limits of such assays; conditions: source organism: Rickettsia prowazekii str. Madrid E

>  <RECORD SEQUENCE>
RRNRKALWL

>  <Kd [µM]>
3

$$$$

----------
biological target: HLA-B*44:02; assay: IEDB peptide-MHC binding, purified MHC/competitive/radioactivity; filed as Kd, often an IC50 or EC50 that approximates it; bounds were set here for any values at or beyond the usual limits of such assays; details: source organism: SARS coronavirus Tor2

>  <RECORD SEQUENCE>
SEQSLRLVDA

>  <TARGET OR TEST SYSTEM>
HLA-B*44:02

>  <Kd>
91.6 nM

$$$$
>  <RECORD SEQUENCE>
PEFYEAMYT

>  <TARGET OR TEST SYSTEM>
HLA-B*44:02

>  <Kd>
17400 nM

$$$$
>  <RECORD SEQUENCE>
AEAAVKPLLA

>  <TARGET OR TEST SYSTEM>
HLA-B*44:02

>  <Kd>
105 nM

$$$$
>  <RECORD SEQUENCE>
AEYKLQQGTF

>  <TARGET OR TEST SYSTEM>
HLA-B*44:02

>  <Kd>
28.8 nM

$$$$
>  <RECORD SEQUENCE>
VETVSLAGSY

>  <TARGET OR TEST SYSTEM>
HLA-B*44:02

>  <Kd>
3220 nM

$$$$
>  <RECORD SEQUENCE>
AEWVLAYML

>  <TARGET OR TEST SYSTEM>
HLA-B*44:02

>  <Kd>
13.9 nM

$$$$

----------
target: HLA-A*03:01; experiment: IEDB peptide-MHC binding, purified MHC/competitive/radioactivity; filed as Kd, often an IC50 or EC50 that approximates it; bounds were set here for any values at or beyond the usual limits of such assays; conditions: source organism: Mammarenavirus machupoense

>  <RECORD SEQUENCE>
SFFQEIPVFL

>  <Kd>
≥ 70000 nM

$$$$
>  <RECORD SEQUENCE>
RTAPPSLYGR

>  <Kd>
16.2 nM

$$$$

----------
Listed sequences paired with reported Kd
molecular target: HLA-A*02:01; test: IEDB peptide-MHC binding, purified MHC/competitive/fluorescence; filed as Kd, often an IC50 or EC50 that approximates it; bounds were set here for any values at or beyond the usual limits of such assays; conditions: source organism: Human immunodeficiency virus 1
ENDPOINT: Kd (nM)

>  <RECORD SEQUENCE>
LYNTVATLY

>  <ENDPOINT>
Kd

>  <UNIT ABBREV>
nM

>  <QUANTITATIVE RESULT>
1160

$$$$
>  <RECORD SEQUENCE>
GLADQLIHM

>  <ENDPOINT>
Kd

>  <UNIT ABBREV>
nM

>  <QUANTITATIVE RESULT>
83.7

$$$$
>  <RECORD SEQUENCE>
LTFGWCFKL

>  <ENDPOINT>
Kd

>  <UNIT ABBREV>
nM

>  <QUANTITATIVE RESULT>
152

$$$$

----------
biological target: HLA-A*32:15; assay: IEDB peptide-MHC binding, purified MHC/competitive/fluorescence; filed as Kd, often an IC50 or EC50 that approximates it; bounds were set here for any values at or beyond the usual limits of such assays; conditions: source organism: Escherichia coli F11
pKd: −log10 of the molar value.
ENDPOINT: pKd

>  <RECORD SEQUENCE>
MTYSHHACR

>  <TARGET OR TEST SYSTEM>
HLA-A*32:15

>  <ENDPOINT>
pKd

>  <QUANTITATIVE RESULT>
6.08

$$$$

----------
target: HLA-A*68:23; assay: IEDB peptide-MHC binding, purified MHC/competitive/fluorescence; filed as Kd, often an IC50 or EC50 that approximates it; bounds were set here for any values at or beyond the usual limits of such assays; details: source organism: Entamoeba histolytica HM-1:IMSS
pKd: −log10 of the molar value.
ENDPOINT: pKd

>  <RECORD SEQUENCE>
MPYHGYHII

>  <QUANTITATIVE RESULT>
7.02

$$$$

----------
biological target: HLA-A*01:01; assay: IEDB peptide-MHC binding, purified MHC/direct/fluorescence; filed as Kd, often an IC50 or EC50 that approximates it; bounds were set here for any values at or beyond the usual limits of such assays; conditions: source organism: Orthohantavirus negraense

>  <RECORD SEQUENCE>
MSRKLHRYI

>  <Kd>
≥ 20 µM

$$$$

----------
target: HLA-B*44:03; assay: IEDB peptide-MHC binding, purified MHC/competitive/radioactivity; filed as Kd, often an IC50 or EC50 that approximates it; bounds were set here for any values at or beyond the usual limits of such assays; conditions: source organism: Mammarenavirus juninense
ENDPOINT: Kd

>  <RECORD SEQUENCE>
LESLWAPFGV

>  <RESULT>
≥ 56.4 µM

$$$$
>  <RECORD SEQUENCE>
EELSMMYESL

>  <RESULT>
1.85 µM

$$$$
>  <RECORD SEQUENCE>
KDTPGGYCL

>  <RESULT>
≥ 78.1 µM

$$$$

----------
molecular target: HLA-A*31:01; assay: IEDB peptide-MHC binding, purified MHC/competitive/fluorescence; filed as Kd, often an IC50 or EC50 that approximates it; bounds were set here for any values at or beyond the usual limits of such assays; conditions: source organism: Entamoeba histolytica HM-1:IMSS
ENDPOINT: Kd (nM)

>  <RECORD SEQUENCE>
RSLVCLAPK

>  <ENDPOINT>
Kd

>  <QUANTITATIVE RESULT>
46.5

$$$$

----------
biological target: HLA-B*48:01; test: IEDB peptide-MHC binding, purified MHC/direct/fluorescence; filed as Kd, often an IC50 or EC50 that approximates it; bounds were set here for any values at or beyond the usual limits of such assays; settings: source organism: Escherichia coli O157:H7
ENDPOINT: Kd

>  <RECORD SEQUENCE>
MLKLRQARL

>  <RESULT>
≥ 20 µM

$$$$
>  <RECORD SEQUENCE>
RRHPMRLRK

>  <RESULT>
≥ 20 µM

$$$$
>  <RECORD SEQUENCE>
HEVHAVWPG

>  <RESULT>
≥ 20 µM

$$$$

----------
biological target: HLA-B*27:05; assay: IEDB peptide-MHC binding, purified MHC/direct/fluorescence; filed as Kd, often an IC50 or EC50 that approximates it; bounds were set here for any values at or beyond the usual limits of such assays; settings: source organism: Bacillus anthracis
pKd: −log10 of the molar value.
Listed sequences paired with reported pKd

>  <RECORD SEQUENCE>
RTIQGQRFW

>  <pKd>
≤ 4.70

$$$$
>  <RECORD SEQUENCE>
FIFGKMGAG

>  <pKd>
≤ 4.70

$$$$
>  <RECORD SEQUENCE>
KVQEWYLSY

>  <pKd>
7.29

$$$$

----------
biological target: HLA-A*24:02; assay: IEDB peptide-MHC binding, purified MHC/competitive/radioactivity; filed as Kd, often an IC50 or EC50 that approximates it; bounds were set here for any values at or beyond the usual limits of such assays; details: source organism: Dengue virus 1 Brazil/97-11/1997

>  <RECORD SEQUENCE>
SYKVASEGF

>  <Kd [nM]>
209

$$$$

----------
molecular target: HLA-A*33:01; assay: IEDB peptide-MHC binding, purified MHC/competitive/radioactivity; filed as Kd, often an IC50 or EC50 that approximates it; bounds were set here for any values at or beyond the usual limits of such assays; conditions: source organism: Vaccinia virus WR
pKd: −log10 of the molar value.
Listed sequences paired with reported pKd

>  <RECORD SEQUENCE>
VVKDDPDHY

>  <CENSORING SIGN>
≤

>  <pKd>
4.11

$$$$
>  <RECORD SEQUENCE>
IVTMMKYCSY

>  <CENSORING SIGN>
=

>  <pKd>
6.63

$$$$
>  <RECORD SEQUENCE>
VSTGESSILR

>  <CENSORING SIGN>
=

>  <pKd>
5.49

$$$$
>  <RECORD SEQUENCE>
ISAEKTPIR

>  <CENSORING SIGN>
≤

>  <pKd>
4.11

$$$$
>  <RECORD SEQUENCE>
DVSLSAYIIR

>  <CENSORING SIGN>
=

>  <pKd>
5.95

$$$$
>  <RECORD SEQUENCE>
HVDGKILFV

>  <CENSORING SIGN>
≤

>  <pKd>
4.11

$$$$
>  <RECORD SEQUENCE>
TINVNSLALK

>  <CENSORING SIGN>
=

>  <pKd>
5.40

$$$$
>  <RECORD SEQUENCE>
RAVKFAEESY

>  <CENSORING SIGN>
≤

>  <pKd>
4.15

$$$$
>  <RECORD SEQUENCE>
HVCNATDFWR

>  <CENSORING SIGN>
=

>  <pKd>
6.42

$$$$
>  <RECORD SEQUENCE>
LIKTILASY

>  <CENSORING SIGN>
=

>  <pKd>
4.73

$$$$
>  <RECORD SEQUENCE>
LLVKMINHLK

>  <CENSORING SIGN>
≤

>  <pKd>
4.17

$$$$
>  <RECORD SEQUENCE>
VLKAMHDKK

>  <CENSORING SIGN>
=

>  <pKd>
6.01

$$$$
>  <RECORD SEQUENCE>
CVDIFTEGK

>  <CENSORING SIGN>
≤

>  <pKd>
4.11

$$$$
>  <RECORD SEQUENCE>
DFLKDDTLSK

>  <CENSORING SIGN>
=

>  <pKd>
5.10

$$$$
>  <RECORD SEQUENCE>
ILAALFMYY

>  <CENSORING SIGN>
=

>  <pKd>
4.80

$$$$
>  <RECORD SEQUENCE>
ILEYLYIMR

>  <CENSORING SIGN>
=

>  <pKd>
6.37

$$$$
>  <RECORD SEQUENCE>
NIQKITVFNK

>  <CENSORING SIGN>
=

>  <pKd>
5.92

$$$$
>  <RECORD SEQUENCE>
PVSDLYTSMR

>  <CENSORING SIGN>
=

>  <pKd>
6.46

$$$$
>  <RECORD SEQUENCE>
FSSLRREHIK

>  <CENSORING SIGN>
=

>  <pKd>
4.76

$$$$
>  <RECORD SEQUENCE>
SSRVDRYSK

>  <CENSORING SIGN>
=

>  <pKd>
5.92

$$$$
>  <RECORD SEQUENCE>
GLYNHNNTTY

>  <CENSORING SIGN>
=

>  <pKd>
4.85

$$$$
